Origin of values: a collection of fitness landscapes (doi:10.1016/j.celrep.2020.107928)

The variants listed here are annotated with their one-hybrid fitness for binding NBS DNA.
B1: Caulobacter ParB omega fusion; a variant is named by its letters at X, in order, B8GW30 (parent)
chain: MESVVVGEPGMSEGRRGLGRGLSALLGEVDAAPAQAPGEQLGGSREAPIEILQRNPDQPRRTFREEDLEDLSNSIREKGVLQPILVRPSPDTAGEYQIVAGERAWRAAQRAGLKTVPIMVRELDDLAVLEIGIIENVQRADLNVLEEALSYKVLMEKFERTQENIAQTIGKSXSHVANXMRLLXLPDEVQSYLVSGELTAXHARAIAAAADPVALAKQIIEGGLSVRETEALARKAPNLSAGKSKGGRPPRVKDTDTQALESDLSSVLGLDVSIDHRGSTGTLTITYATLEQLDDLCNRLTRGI

Variants of: B1
Test: one-hybrid fitness for binding NBS DNA (the Noc-binding site; scaled: cognate 1, non-cognate 0); higher = stronger binding
Details: with NBS DNA site
Over roughly 81,000 sequences, “one-hybrid fitness for binding NBS DNA” has its median near -0.1; the highest 2% begin near 0.36. The sample holds the highest values, similar sequences and a random draw of the others, so the mix is not that of the screen.

one-hybrid fitness for binding NBS DNA measured on `QKQT` = 0.578

one-hybrid fitness for binding NBS DNA measured on `KCYR` = ≤ 0.2

one-hybrid fitness for binding NBS DNA measured on `NGMR` = ≤ 0.2

one-hybrid fitness for binding NBS DNA measured on `QSQT` = 0.411

one-hybrid fitness for binding NBS DNA measured on `FLVG` = ≤ 0.2

one-hybrid fitness for binding NBS DNA measured on `QPWT` = ≤ 0.2

one-hybrid fitness for binding NBS DNA measured on `RTHD` = ≤ 0.2

one-hybrid fitness for binding NBS DNA measured on `YKYT` = ≤ 0.2

one-hybrid fitness for binding NBS DNA measured on `LWPC` = ≤ 0.2

one-hybrid fitness for binding NBS DNA measured on `QICT` = 0.266

one-hybrid fitness for binding NBS DNA measured on `QCQT` = 0.526

one-hybrid fitness for binding NBS DNA measured on `RTAF` = ≤ 0.2

one-hybrid fitness for binding NBS DNA measured on `QSWT` = 0.348

one-hybrid fitness for binding NBS DNA measured on `QSGM` = ≤ 0.2

one-hybrid fitness for binding NBS DNA measured on `RRNY` = 0.589

one-hybrid fitness for binding NBS DNA measured on `QEPT` = ≤ 0.2

one-hybrid fitness for binding NBS DNA measured on `QTDT` = 0.448

one-hybrid fitness for binding NBS DNA measured on `QDQT` = ≤ 0.2

one-hybrid fitness for binding NBS DNA measured on `RTND` = ≤ 0.2

one-hybrid fitness for binding NBS DNA measured on `QHQT` = 0.363

one-hybrid fitness for binding NBS DNA measured on `KRYR` = 0.545

one-hybrid fitness for binding NBS DNA measured on `NRSI` = ≤ 0.2

one-hybrid fitness for binding NBS DNA measured on `QCCT` = 0.521

one-hybrid fitness for binding NBS DNA measured on `QCWT` = 0.461

one-hybrid fitness for binding NBS DNA measured on `KRPR` = 0.239

one-hybrid fitness for binding NBS DNA measured on `QCGM` = ≤ 0.2

one-hybrid fitness for binding NBS DNA measured on `KRRK` = 0.319
